Source of measurements: ChEMBL document CHEMBL1142974

Consider the following compounds and their measured IC50 readings.
- Tested on: MDA-MB-231
- ASSAY EXPLANATION: Antiproliferative activity against human MDA-MB-231 cells by WST-1 method after 72 hrs
- Format: functional, cell-based
- TEST SETTINGS: MDA-MB-231, 72 h
A bare number is not enough; add the unit after it.

Completed entries (count: 3):
>  <SMILES RECORD>
Cc1nc2cc3c4c(nn3CCN(C)C)-c3ccccc3Oc4c2[nH]1

>  <TESTED SYSTEM>
MDA-MB-231

>  <IC50>
17 µM

$$$$
>  <SMILES RECORD>
CN(C)CCn1nc2c3c(c4[nH]cnc4cc31)Oc1ccccc1-2

>  <TESTED SYSTEM>
MDA-MB-231

>  <IC50>
6.5 µM

$$$$
>  <SMILES RECORD>
CCN(CC)CCn1nc2c3c(c4[nH]c(C)nc4cc31)Oc1ccccc1-2

>  <TESTED SYSTEM>
MDA-MB-231

>  <IC50>
18 µM

$$$$

Shift focus to the following entry.
QUERY: Give a short answer stating reported IC50 for CCN(CC)CCn1nc2c3c(c4[nH]cnc4cc31)Oc1ccccc1-2 .
RESULT: 8.5 µM
